# target.or.test.system: Kir3.1/Kir3.4 (Homo sapiens) (UniProt P48549+P48544)
# protocol.details: Activation of human GIRK1/4 expressed in HEK293 cells co-expressing rat mGlu8 by thallium flux assay relative to control
# Format: cell-based
measured.parameter: Emax

Cc1cc(NC(=O)Cn2nnc(-c3ccccc3)n2)n(C(C)C)n1
> 96%
Cc1cc(NC(=O)Cc2ccc(-c3ccc(Cl)c(Cl)c3)cc2)n(C2CCCCC2)n1
11%

# lookup: Emax of Cc1cc(NC(=O)Cc2csc(-c3ccccc3)n2)n(C2CCCCC2)n1
> 18%

* * *

Below, each entry is listed with its recorded CLhep predicted.
# protocol.details: Clearance in human liver microsomes
Kindly answer with a numeric value in mL/min/kg, unit omitted.

// worked examples, CLhep predicted included
Cc1cc(NC(=O)Cn2nncc2-c2ccccc2)n(C2CCCCC2)n1
18.3
Cc1cc(NC(=O)Cn2nnc(-c3cccc(F)c3)n2)n(C2CCCCC2)n1
17.8
Cc1cc(NC(=O)Cn2nnc(-c3ccccc3)n2)n(CC2CCCCC2)n1
20.4

Recorded CLhep predicted of Cc1cc(NC(=O)Cn2cc(-c3ccccc3)nn2)n(C2CCCCC2)n1 , please.
14.6

What value of measured CLhep predicted is listed for Cc1cc(NC(=O)Cn2nnc(-c3ccccc3)n2)n(C2CCCCC2)n1 ?
18.9
